- STUDY SYSTEM: PD-1 (programmed cell death protein 1) (Mus musculus, UniProt Q02242 Q02242:25-169)
- Sequence (Q02242 25-169, one chain of several): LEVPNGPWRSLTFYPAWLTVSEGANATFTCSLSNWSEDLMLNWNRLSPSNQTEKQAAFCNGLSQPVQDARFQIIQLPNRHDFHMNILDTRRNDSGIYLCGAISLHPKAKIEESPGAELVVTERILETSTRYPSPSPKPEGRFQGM
- METHOD: ELONA; ++ class
- MEASUREMENT CONDITIONS: tags: His tag, immobilized on Ni-NTA plate; label: 5'-biotin
MEASUREMENT KIND: Kd (nM)
Expressed in nM, but write only the number.

What value of Kd has been reported for the following binder? PD100 (5'-biotin) (ssDNA) DNA: TCCCTACGGCGCTAACCCTCCCCTAGTATATATTGTCCTCGTCTATGCCACCGTGCTACAAC
44.7

Which Kd is listed for CCATCTCCC (ssDNA) [Core 1 (5'-biotin)] ?
44.7
